- System Name: T1, mouse BCMA with a His tag (ACROBiosystems, Catalog No.: BCA-M52H3) (mouse)
- T1 construct: Bought His-tagged recombinant protein
- T1 chain: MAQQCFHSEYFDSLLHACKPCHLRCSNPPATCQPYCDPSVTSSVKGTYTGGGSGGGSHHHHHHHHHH
- Assay Overview: ELISA, plate-coated mouse BCMA-His
Reported Property: EC50 (µg/mL)
Hi! Could you send only the number? It should be in µg/mL, unit omitted.

QUERY: Which value of EC50 has been reported for SCT-Aa14(m/m) (antibody, V domains shown, Full IgG format: mouse IgG1 heavy chain constant region, mouse kappa light chain constant region) VH: QVQLQQSDAELVKPGASVKISCKVSSYTFTDHTIHWMKQRPEQGLEWIGYIFPRDGSTKYNEKFKGKATLTADKSSSTAYMQLNSLTSEDSAVYFCARWDYEGFDYWGQGTTLTVSS VL: DIVMTQSPATLSVTPGDRVSLSCRASQNISDYLHWYQQKSHESPRLLIKYASQSISGIPSRFSGSGSGSDFTLSINSVEPEDVGVYYCQNGHSFPPTFGSGTKLEIK in the records?
RESULT: 2.34

Lab note: next binder to report on.
QUERY: Fill in: EC50 of SCT-Aa03(h/h) (antibody, V domains shown, Full IgG format, chimeric: human IgG1 heavy chain constant region, human kappa light chain constant region) VH: EVKLLQSGGGLVQPGGSLKLSCAASGIDFSRYWMSWVRRAPGKGLEWIGEINPDSSTINYAPSLKDKFIISRDNAKNTLYLQMSKVRSEDTALYYCASFYYDYDHAMDYWGQGTSVTVSS VL: DIVMTQSQKFMSTSVGDRFSVTCKASQNVGTNVAWYQQKPGQSPKALIYSASYRFSGVPDRFTGSGSGTDFTLTISNVQSEDLAEYFCQQYNSYPFTFGSGTKLEIK is ___
RESULT: 0.0108
